- experimental.system: hTAS1R1 A302W/rTAS1R3 (UniProt Q7RTX1+Q923K1, A302W)
- Construct: UniProtKB number Q7RTX1–1); The cDNA coding region of rTAS1R3 was synthesized with optimized-codon usage for human expression
- experiment.description: Calcium assay, hTAS1R1 mutant co-expressed with rTAS1R3
reported.endpoint: EC50 (mM)

{"smi": "N[C@@H](CCC(=O)N[C@@H](CS)C(=O)NCC(=O)O)C(=O)O", "unit.spec": "mM", "measurement": 5.32}

====

- experimental.system: hTAS1R1 D192F/rTAS1R3 (UniProt Q7RTX1+Q923K1, D192F)
- Construct: The cDNA coding region of rTAS1R3 was synthesized with optimized-codon usage for human expression
- Sequence (Q7RTX1 21-841 D192F): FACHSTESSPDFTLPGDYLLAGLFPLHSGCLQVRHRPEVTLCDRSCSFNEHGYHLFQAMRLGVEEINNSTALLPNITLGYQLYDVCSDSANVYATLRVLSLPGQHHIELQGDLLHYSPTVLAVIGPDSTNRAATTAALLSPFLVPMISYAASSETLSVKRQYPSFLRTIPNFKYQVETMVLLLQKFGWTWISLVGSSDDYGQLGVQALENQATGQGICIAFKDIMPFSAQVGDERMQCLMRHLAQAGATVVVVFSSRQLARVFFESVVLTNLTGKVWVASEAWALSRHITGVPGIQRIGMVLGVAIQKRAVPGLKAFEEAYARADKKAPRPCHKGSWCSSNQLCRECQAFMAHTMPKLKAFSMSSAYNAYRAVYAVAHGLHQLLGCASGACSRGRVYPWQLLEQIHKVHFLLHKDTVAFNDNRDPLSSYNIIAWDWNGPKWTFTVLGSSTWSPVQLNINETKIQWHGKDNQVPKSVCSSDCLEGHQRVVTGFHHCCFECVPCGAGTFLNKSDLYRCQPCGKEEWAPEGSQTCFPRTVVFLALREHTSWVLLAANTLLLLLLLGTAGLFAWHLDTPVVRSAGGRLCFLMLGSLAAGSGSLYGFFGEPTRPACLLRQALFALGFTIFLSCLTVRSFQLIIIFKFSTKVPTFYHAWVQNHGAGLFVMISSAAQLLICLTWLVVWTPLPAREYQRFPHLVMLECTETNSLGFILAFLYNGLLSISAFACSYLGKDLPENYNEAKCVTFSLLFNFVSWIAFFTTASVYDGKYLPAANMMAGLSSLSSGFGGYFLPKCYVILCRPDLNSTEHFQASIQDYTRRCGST
- Sequence (Q923K1 21-858): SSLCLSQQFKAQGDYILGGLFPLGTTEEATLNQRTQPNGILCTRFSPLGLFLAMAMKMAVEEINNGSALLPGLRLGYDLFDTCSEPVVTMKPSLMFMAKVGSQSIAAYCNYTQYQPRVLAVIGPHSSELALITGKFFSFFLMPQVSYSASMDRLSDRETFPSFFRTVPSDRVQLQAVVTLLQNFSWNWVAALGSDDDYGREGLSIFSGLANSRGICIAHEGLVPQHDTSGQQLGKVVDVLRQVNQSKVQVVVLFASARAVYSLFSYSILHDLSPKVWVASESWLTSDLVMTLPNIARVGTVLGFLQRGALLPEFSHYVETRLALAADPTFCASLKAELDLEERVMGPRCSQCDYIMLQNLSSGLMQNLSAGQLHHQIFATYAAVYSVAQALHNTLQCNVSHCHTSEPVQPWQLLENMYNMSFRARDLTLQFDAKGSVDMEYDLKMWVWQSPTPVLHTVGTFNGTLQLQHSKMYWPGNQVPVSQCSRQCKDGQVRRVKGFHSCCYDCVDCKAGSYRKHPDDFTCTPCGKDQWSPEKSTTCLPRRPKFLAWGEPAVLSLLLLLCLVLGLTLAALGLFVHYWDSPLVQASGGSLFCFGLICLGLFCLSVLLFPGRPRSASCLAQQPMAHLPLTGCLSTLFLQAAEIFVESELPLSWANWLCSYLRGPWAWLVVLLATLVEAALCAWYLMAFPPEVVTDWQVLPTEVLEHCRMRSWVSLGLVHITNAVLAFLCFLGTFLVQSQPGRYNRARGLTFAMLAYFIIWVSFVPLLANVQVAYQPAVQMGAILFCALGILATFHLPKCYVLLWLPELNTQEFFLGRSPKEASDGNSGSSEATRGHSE
- experiment.description: Calcium assay, hTAS1R1 mutant co-expressed with rTAS1R3
reported.endpoint: EC50

{"molecule": "N[C@@H](CCC(=O)N[C@@H](CS)C(=O)NCC(=O)O)C(=O)O [GSH, γ-L-glutamyl-L-cysteinyl-glycine]", "reported.endpoint": "EC50", "measurement": "> 30 mM"}

====

- experimental.system: hTAS1R1/rTAS1R3(Mut2) (UniProt Q7RTX1+Q923K1, L72W/P67S/S282A/Y281H)
- experiment.description: Calcium assay, mutated rTAS1R3 co-expressed with hTAS1R1

{"compound": "CCCC(CCC)NC(=O)c1ccc2c(c1)OCO2 [S807, reference compound]", "unit.spec": "µM", "EC50": 1.59}
{"compound": "N[C@@H](CCC(=O)N[C@@H](CS)C(=O)NCC(=O)O)C(=O)O", "unit.spec": "µM", "EC50": 1220}

====

- experimental.system: hTAS1R1 Q278K/rTAS1R3 (Homo sapiens, UniProt Q7RTX1, Q278K)
- Construct: UniProtKB number Q7RTX1–1); expressed in transfected cells; host or cells: HEK293T/17 (ATCC CRL-11268)
- experiment.description: Calcium assay, hTAS1R1 mutant co-expressed with rTAS1R3
- Format: cell-based, rat
pEC50: −log10 of the molar value.

{"smi": "N[C@@H](CCC(=O)N[C@@H](CS)C(=O)NCC(=O)O)C(=O)O", "pEC50": 2.25}

====

- experimental.system: hTAS1R1/rTAS1R3 (UniProt Q7RTX1+Q923K1)
- Construct: UniProtKB number Q7RTX1–1); The cDNA coding region of rTAS1R3 was synthesized with optimized-codon usage for human expression; expressed in transfected cells; host or cells: HEK293T/17 (ATCC CRL-11268)
- experiment.description: Calcium assay (GCaMP6s, Gα15i2) in transiently transfected HEK293T/17 cells
- Type: cell-based, human, rat
- condition.summary: WT; GSH
reported.endpoint: EC50

{"smi": "N[C@@H](CCC(=O)N[C@@H](CS)C(=O)NCC(=O)O)C(=O)O", "reported.endpoint": "EC50", "measurement": "2.52 mM"}

====

- experimental.system: hTAS1R1/rTAS1R3 (UniProt Q7RTX1+Q923K1)
- Construct: UniProtKB number Q7RTX1–1); The cDNA coding region of rTAS1R3 was synthesized with optimized-codon usage for human expression; expressed in transfected cells; host or cells: HEK293T/17 (ATCC CRL-11268)
- experiment.description: Calcium assay (GCaMP6s, Gα15i2) in transiently transfected HEK293T/17 cells
- Format: cell-based, human, rat
- condition.summary: WT; S807 alone; Fig. 4E
reported.endpoint: EC50 (nM)

{"compound": "CCCC(CCC)NC(=O)c1ccc2c(c1)OCO2 [S807, reference compound]", "reported.endpoint": "EC50", "measurement": 1250}

====

- experimental.system: hTAS1R2/hTAS1R3(r1–575) (UniProt Q8TE23+Q923K1, A645S/A698V/A702T/A793V/A807V/C582S/C678S/E725V/E827G/F612A/F622V/F805L/I617V/I740A/I779T/I803L/K818R/L735F/L823M/L825Q/M644L/M706V/M729T/N675D/Q717H/Q757R/Q795R/Q831P/R632Q/R634S/R762C/S576L/S610P/S635P/S637R/S679G/T588V/T694M/T813A/V584A/V718M/V723A/V738A/V744T/V821L/W599R/W676R/W824R/Y598H/Y680C/Y794L)
- Construct: hTAS1R3(r1–575) consists of the N-terminal extracellular domain of rTAS1R3 and the TMD of hTAS1R3
- Sequence (Q8TE23 20-839, stated change not applied): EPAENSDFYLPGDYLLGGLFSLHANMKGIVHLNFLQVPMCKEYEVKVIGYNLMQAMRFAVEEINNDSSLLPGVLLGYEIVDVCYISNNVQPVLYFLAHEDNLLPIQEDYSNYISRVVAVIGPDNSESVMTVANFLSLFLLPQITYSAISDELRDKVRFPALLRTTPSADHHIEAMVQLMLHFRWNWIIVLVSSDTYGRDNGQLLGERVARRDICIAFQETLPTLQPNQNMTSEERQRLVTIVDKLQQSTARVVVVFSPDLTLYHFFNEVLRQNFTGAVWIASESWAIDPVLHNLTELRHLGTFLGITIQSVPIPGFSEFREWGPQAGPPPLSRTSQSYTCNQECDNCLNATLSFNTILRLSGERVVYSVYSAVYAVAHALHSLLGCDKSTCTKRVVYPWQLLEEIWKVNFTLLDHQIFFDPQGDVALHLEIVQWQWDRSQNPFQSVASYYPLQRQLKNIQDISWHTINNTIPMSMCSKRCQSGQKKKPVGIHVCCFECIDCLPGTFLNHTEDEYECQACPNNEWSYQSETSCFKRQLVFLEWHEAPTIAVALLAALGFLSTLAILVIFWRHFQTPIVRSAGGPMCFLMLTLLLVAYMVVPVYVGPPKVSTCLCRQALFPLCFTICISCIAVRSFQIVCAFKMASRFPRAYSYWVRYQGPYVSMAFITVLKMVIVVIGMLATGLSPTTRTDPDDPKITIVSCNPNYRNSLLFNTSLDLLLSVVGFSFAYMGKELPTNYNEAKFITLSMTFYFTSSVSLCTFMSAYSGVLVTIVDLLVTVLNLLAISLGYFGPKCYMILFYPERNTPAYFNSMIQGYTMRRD
- Sequence (Q923K1 other isoform, or with tags, fused parts or gaps with the stated changes): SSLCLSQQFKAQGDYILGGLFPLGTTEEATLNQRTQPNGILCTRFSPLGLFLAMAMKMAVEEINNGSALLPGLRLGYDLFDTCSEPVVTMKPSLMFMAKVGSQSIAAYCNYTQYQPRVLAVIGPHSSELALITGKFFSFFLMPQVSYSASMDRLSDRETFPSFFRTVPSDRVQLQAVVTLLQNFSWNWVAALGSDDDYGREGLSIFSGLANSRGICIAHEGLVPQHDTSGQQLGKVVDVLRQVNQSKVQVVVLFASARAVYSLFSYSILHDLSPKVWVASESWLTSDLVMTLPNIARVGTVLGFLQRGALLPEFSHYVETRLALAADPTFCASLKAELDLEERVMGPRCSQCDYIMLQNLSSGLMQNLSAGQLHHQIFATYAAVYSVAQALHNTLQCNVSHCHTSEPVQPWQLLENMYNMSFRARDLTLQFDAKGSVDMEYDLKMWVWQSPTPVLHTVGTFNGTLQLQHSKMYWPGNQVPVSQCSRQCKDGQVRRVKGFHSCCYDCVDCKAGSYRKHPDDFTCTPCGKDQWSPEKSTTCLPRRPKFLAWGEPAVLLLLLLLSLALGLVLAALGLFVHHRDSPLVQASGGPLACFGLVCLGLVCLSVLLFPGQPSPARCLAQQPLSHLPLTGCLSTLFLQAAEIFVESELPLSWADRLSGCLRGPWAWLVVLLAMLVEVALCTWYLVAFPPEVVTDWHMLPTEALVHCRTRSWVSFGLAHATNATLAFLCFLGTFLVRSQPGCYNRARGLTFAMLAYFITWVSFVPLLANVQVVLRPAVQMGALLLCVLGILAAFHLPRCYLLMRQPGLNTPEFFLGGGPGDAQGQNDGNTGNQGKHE
- experiment.description: Calcium assay, chimeric TAS1R3 co-expressed with hTAS1R2
- condition.summary: sucralose alone; Fig. 3B
pEC50: −log10 of the molar value.
reported.endpoint: pEC50

{"compound": "OC[C@H]1O[C@H](O[C@]2(CCl)O[C@H](CCl)[C@@H](O)[C@@H]2O)[C@H](O)[C@@H](O)[C@H]1Cl [sucralose, reference compound]", "reported.endpoint": "pEC50", "measurement": 3.31}

====

- experimental.system: hTAS1R1 Q278Y/rTAS1R3 (Homo sapiens, UniProt Q7RTX1, Q278Y)
- experiment.description: Calcium assay, hTAS1R1 mutant co-expressed with rTAS1R3
pEC50: −log10 of the molar value.

{"smi": "N[C@@H](CCC(=O)N[C@@H](CS)C(=O)NCC(=O)O)C(=O)O", "pEC50": 2.40}

====

- experimental.system: hTAS1R1 L223A/rTAS1R3 (Homo sapiens, UniProt Q7RTX1, L223A)
- Construct: UniProtKB number Q7RTX1–1)
- Sequence (Q7RTX1 21-841 L223A): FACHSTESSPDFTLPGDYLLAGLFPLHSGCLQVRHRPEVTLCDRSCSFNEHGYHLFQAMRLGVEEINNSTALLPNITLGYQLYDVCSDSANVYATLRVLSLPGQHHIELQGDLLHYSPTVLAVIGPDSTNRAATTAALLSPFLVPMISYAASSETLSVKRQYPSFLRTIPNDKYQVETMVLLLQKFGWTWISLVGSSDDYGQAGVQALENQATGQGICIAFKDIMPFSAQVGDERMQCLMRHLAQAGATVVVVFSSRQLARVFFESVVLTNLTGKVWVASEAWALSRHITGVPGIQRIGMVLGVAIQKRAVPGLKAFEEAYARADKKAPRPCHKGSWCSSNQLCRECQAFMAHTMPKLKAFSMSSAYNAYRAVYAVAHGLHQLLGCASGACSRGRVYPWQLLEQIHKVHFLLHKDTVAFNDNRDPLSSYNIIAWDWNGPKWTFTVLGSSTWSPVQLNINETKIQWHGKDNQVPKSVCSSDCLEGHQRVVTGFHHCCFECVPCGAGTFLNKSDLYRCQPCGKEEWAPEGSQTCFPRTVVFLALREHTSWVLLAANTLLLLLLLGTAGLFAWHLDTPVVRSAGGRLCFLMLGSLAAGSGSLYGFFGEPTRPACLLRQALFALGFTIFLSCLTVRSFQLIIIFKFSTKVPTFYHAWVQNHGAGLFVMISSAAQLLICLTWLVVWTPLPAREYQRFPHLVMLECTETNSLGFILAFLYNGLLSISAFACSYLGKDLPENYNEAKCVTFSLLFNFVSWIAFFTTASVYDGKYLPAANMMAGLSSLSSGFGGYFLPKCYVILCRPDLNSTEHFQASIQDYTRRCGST
- Sequence (Q923K1 21-858 partner): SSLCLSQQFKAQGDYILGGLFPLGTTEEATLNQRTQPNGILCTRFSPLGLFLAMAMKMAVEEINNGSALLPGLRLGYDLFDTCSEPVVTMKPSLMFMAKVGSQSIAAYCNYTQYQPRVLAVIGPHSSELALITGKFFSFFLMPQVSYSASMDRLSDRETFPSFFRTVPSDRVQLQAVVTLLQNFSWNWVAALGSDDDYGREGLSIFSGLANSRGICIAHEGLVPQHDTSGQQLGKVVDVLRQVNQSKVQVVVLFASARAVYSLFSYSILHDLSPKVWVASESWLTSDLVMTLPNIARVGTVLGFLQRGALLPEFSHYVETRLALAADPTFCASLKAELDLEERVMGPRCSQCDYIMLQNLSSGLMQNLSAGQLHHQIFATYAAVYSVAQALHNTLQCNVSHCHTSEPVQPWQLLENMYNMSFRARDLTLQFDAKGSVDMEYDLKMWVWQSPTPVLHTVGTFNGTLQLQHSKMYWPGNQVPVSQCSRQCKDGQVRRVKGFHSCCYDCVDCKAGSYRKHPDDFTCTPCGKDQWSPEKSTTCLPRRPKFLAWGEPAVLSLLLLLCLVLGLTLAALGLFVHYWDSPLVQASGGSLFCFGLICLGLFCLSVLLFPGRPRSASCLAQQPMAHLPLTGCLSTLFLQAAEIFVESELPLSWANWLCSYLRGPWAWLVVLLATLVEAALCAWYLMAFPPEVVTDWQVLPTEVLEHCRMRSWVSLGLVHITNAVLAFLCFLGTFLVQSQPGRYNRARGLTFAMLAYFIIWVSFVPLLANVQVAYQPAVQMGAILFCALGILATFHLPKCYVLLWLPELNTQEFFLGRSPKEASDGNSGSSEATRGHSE
- experiment.description: Calcium assay, hTAS1R1 mutant co-expressed with rTAS1R3
pEC50: −log10 of the molar value.

{"compound": "N[C@@H](CCC(=O)N[C@@H](CS)C(=O)NCC(=O)O)C(=O)O [GSH, γ-L-glutamyl-L-cysteinyl-glycine]", "pEC50": 2.64}
